Every entry's value here was drawn from patent US20230233569A1.

Listed here are molecules together with their documented IC50.
TARGET OR TEST SYSTEM: KRAS G13D (Homo sapiens, UniProt P01116+P62937, G13D)
Sequence (P01116 1-169 isoform P01116-2 G13D limits assumed): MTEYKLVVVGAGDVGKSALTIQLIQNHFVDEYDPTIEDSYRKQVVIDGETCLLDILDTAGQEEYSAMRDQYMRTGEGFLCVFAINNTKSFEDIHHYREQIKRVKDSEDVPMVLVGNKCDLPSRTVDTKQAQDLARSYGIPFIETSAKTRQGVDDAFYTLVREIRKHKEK
Sequence (P62937 whole entry): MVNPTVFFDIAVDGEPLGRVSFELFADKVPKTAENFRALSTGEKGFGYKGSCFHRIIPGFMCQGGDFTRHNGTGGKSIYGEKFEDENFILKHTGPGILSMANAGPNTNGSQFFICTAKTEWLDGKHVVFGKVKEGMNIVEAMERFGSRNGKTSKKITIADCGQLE
TEST: Disruption of BRAF RBD interaction with Ras (FRET / MOA assay, with Cyclophilin A)
Assay type: biochemical
CONDITION NOTES: KRAS G13D; read-out: KRAS G13D FRET data IC50

MOLECULE	IC50
C=CC(=O)N1CC[C@H](C(=O)N(C)[C@H](C(=O)N[C@H]2Cc3cc(O)cc(c3)-c3ccc4c(c3)c(c(-c3cccnc3[C@H](C)OC)n4C)CC(C)(C)COC(=O)[C@@H]3CCCN(N3)C2=O)C(C)C)C1 [Example A197]	1000 to 10000 nM
CCn1c(-c2ccccc2CCOC)c2c3cc(ccc31)-c1cc(O)cc(c1)C[C@H](NC(=O)[C@H](C(C)C)N(C)C(=O)[C@H]1CCN(C(=O)C#CCN(C)C)C1)C(=O)N1CCC[C@H](N1)C(=O)OCC(C)(C)C2 [Example A038]	1000 to 10000 nM
CCn1c(-c2cccnc2[C@H](C)OC)c2c3cc(ccc31)-c1csc(n1)C[C@H](NC(=O)[C@H](C(C)C)N(C)C(=O)N1CC3(CC(N(C)CCO)C3)C1)C(=O)N1CCC[C@H](N1)C(=O)OCC(C)(C)C2 (atropisomer, axis not shown) [Example A467]	100 to 1000 nM

[ask] Entry under review: CCn1c(-c2cccnc2[C@H](C)OC)c2c3cc(ccc31)-c1csc(n1)C[C@H](NC(=O)[C@H](C(C)C)N(C)C(=O)N1CC3(CC3)C1)C(=O)N1CCC[C@H](N1)C(=O)OCC(C)(C)C2 (atropisomer, axis not shown) [Example A523] . Reported IC50?
[reply] 100 to 1000 nM

[ask] CCC(=O)N1CC[C@H](C(=O)N(C)[C@H](C(=O)N[C@H]2Cc3cc(O)cc(c3)-c3ccc4c(c3)c(c(-c3ccccc3CCOC)n4CC)CC(C)(C)COC(=O)[C@@H]3CCCN(N3)C2=O)C(C)C)C1 [Example A34] ?
[reply] 1000 to 10000 nM

[ask] Please answer likewise for CCn1c(-c2cnccc2[C@H](C)OC)c2c3cc(ccc31)-c1cc(O)cc(c1)C[C@H](NC(=O)[C@H](C(C)C)N(C)C(C)=O)C(=O)N1CCC[C@H](N1)C(=O)OCC(C)(C)C2 [Example A21]
[reply] 100 to 1000 nM

[ask] Item: CCn1c(-c2cccnc2[C@H](C)OC)c2c3cc(ccc31)-c1csc(n1)C[C@H](NC(=O)[C@H](C(C)C)N(C)C(=O)N1CC([C@H](C)NC)C1)C(=O)N1CCC[C@H](N1)C(=O)OCC(C)(C)C2 [Example A535]
[reply] 100 to 1000 nM

[ask] Now give it for CO[C@@H](C)c1ncccc1-c1c2c3cc(ccc3n1C)-c1csc(n1)C[C@H](NC(=O)[C@H](C(C)C)N(C)C(C)=O)C(=O)N1CCC[C@H](N1)C(=O)OCC(C)(C)C2 (racemic) [Example A103] too.
[reply] > 10000 nM

[ask] Now give it for CCn1c(-c2cccnc2[C@H](C)OC)c2c3cc(ccc31)-c1csc(n1)C[C@H](NC(=O)[C@@H](OC(=O)N1CC(OC)C1)C(C)C)C(=O)N1CCC[C@H](N1)C(=O)OCC(C)(C)C2 [Example A354] too.
[reply] 1000 to 10000 nM

[ask] Also CCn1c(-c2cccnc2[C@H](C)OC)c2c3cc(ccc31)-c1csc(n1)C[C@H](NC(=O)[C@H](C(C)C)N(C)C(=O)N1CCCC1)C(=O)N1CCC[C@H](N1)C(=O)OCC(C)(C)C2 (atropisomer, axis not shown) [Example A400] , if possible.
[reply] 100 to 1000 nM

[ask] Next up: CCn1c(-c2cccnc2[C@H](C)OC)c2c3cc(ccc31)-c1csc(n1)C[C@H](NC(=O)[C@H](C(C)C)N(C)C(=O)N1CCN(C(=O)CN(C)C)CC1)C(=O)N1CCC[C@H](N1)C(=O)OCC(C)(C)C2 (atropisomer, axis not shown) [Example A290]
[reply] 100 to 1000 nM

[ask] Note, next up: CCn1c(-c2cccnc2[C@H](C)OC)c2c3cc(ccc31)-c1cc(O)cc(c1)C[C@H](NS(=O)(=O)CC1OCCC13CNC3)C(=O)N1CCC[C@H](N1)C(=O)OCC(C)(C)C2 (mixture of isomers) [Example A187]
[reply] > 10000 nM
